- TARGET OR TEST SYSTEM: UniProt P28335
- Sequence (P28335 33-458): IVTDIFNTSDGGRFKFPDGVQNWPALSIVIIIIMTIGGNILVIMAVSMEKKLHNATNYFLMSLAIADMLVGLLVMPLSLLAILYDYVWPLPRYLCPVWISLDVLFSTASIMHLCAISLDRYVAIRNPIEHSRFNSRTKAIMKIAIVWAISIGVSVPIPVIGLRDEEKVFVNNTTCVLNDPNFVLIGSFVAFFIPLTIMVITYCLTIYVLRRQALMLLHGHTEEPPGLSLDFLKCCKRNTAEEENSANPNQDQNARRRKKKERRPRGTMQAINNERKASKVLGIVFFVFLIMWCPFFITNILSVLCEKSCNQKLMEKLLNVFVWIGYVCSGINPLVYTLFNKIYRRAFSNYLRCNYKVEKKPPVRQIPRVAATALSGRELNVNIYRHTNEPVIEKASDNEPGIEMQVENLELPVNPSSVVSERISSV
- MEASUREMENT PROTOCOL: [125I]DOI binding to membranes of CHO cells expressing the h-5-HT2C receptor
- DETAILS: saturation binding with increasing concentrations of [125I]DOI; read-out: dissociation constant, KD
QUANTITY: Kd

compound="COc1cc(CC(C)N)c(OC)cc1I (stereo not shown) [[^125I] DOI, reference compound]" value="0.4 nM"

###

- TARGET OR TEST SYSTEM: human 5-HT2C receptor (Homo sapiens, UniProt P28335)
- Sequence (P28335 33-458): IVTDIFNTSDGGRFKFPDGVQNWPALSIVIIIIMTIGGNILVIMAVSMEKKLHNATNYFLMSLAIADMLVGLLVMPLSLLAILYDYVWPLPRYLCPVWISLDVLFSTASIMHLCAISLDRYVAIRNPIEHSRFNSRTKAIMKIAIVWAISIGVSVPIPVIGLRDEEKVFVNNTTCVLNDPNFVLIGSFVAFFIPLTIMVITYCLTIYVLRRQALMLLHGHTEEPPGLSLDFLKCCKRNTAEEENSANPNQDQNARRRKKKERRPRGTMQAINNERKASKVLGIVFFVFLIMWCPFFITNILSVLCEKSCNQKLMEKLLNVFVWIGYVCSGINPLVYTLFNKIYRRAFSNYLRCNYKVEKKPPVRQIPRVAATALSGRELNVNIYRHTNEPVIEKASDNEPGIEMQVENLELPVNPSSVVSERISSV
- MEASUREMENT PROTOCOL: 5-HT2C receptor-stimulated calcium mobilization (FLIPR) in CHO cells
- Assay type: cell-based
- DETAILS: calcium mobilization, CHO cells stably expressing human 5-HT2C; read-out: 5-HT2C Function EC50
QUANTITY: EC50 (nM)

compound=CN1CCc2cccc3c4c(n(c23)CC1)CCCCC4 value=275
compound="CN1CCc2ccc(F)c3c2N(CC1)C1CCCCC31 (stereo not shown)" value=261
compound=c1cc2c3c(c1)c1c(n3CCNCC2)CCCCC1 value=156
compound="Clc1ccc2c3c1CCNCCN3C1CCCCCC21 (stereo not shown)" value=326
compound=CN1CCc2ccc(Cl)c3c4c(n(c23)CC1)CCCC4 value=287
compound="CN1CCc2ccc(Cl)c3c2N(CC1)C1CCCC31 (stereo not shown)" value=467
compound="CN1CCc2ccc(Cl)c3c2N(CC1)C1CCCCC31 (stereo not shown)" value=655
